Data provenance is the supplement of paper PMC6555819.

# Test system: PXR:RXRa (NR concentration 270 nM, RXRa partner concentration 90 nM)
# ASSAY_REMARKS: PBM binding z-score (relative to random genomic background probes); higher = stronger binding; sequences stand for … in GC…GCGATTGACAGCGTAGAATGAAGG
I'd appreciate it if you could supply PBM binding z-score values for the items below.

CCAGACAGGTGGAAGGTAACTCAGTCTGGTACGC: -0.242
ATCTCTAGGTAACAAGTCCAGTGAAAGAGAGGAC: 0.433
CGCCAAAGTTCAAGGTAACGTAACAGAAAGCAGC: 4.18
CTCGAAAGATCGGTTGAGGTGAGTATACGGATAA: -0.0362

// for each sequence in input: emit PBM binding z-score
1. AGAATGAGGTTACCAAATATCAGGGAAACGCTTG
2. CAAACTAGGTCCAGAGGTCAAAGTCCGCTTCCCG
3. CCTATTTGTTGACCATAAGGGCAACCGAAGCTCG
4. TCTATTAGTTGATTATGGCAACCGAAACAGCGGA
5. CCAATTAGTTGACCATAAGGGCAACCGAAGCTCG
6. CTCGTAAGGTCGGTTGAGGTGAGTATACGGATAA

A.
1. 1.05
2. 5.47
3. 1.09
4. 0.553
5. 0.497
6. 2.72

// for each sequence in input: emit PBM binding z-score
1. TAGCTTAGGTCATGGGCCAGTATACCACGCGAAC
2. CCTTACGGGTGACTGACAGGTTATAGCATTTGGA
3. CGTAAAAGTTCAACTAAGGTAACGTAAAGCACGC

A.
1. 1.82
2. 0.299
3. 4.97

// for each sequence in input: emit PBM binding z-score
1. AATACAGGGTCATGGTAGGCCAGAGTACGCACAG
2. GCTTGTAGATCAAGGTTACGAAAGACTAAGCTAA
3. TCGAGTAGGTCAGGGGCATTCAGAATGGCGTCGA
4. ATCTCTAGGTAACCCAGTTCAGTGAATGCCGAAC
5. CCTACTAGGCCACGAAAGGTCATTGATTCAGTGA
6. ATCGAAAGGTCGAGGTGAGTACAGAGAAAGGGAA
7. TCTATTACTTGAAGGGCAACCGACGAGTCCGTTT
8. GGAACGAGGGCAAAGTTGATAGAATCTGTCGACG

A.
[4.8, 0.724, 1.2, 1.64, 5.44, 3.27, 1.01, 1.25]

// for each sequence in input: emit PBM binding z-score
1. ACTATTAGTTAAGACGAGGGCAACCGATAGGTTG
2. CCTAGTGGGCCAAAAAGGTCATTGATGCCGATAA
3. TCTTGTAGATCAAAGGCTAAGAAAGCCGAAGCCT

A.
0.642
4.65
-0.183

====

# System: PPARg:RXRa 270nM:90nM, anti-RXR (NR concentration 270 nM, RXRa partner concentration 90 nM)
# ASSAY_REMARKS: PBM binding z-score (relative to random genomic background probes); higher = stronger binding; sequences stand for … in GC…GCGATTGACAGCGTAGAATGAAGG
I'd appreciate it if you could supply PBM binding z-score values for the items below.
One number for each entry.

As a guide, the following entries are already answered.
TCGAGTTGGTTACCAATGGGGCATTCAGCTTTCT: 0.352
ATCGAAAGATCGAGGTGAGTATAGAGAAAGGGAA: 0.362
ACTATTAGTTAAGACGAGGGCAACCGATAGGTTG: -0.109
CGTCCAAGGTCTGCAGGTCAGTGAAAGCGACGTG: 0.0368
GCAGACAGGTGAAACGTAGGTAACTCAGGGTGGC: 0.526

Q. // PBM binding z-score lookup, key: `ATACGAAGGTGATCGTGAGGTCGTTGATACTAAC`
A. 0.532
